kcat values by entry
B1: glmS ribozyme (parent)
chain: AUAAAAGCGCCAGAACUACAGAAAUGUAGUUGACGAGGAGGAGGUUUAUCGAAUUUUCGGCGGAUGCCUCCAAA

# Variants of: B1
# method summary: kcat; higher = faster cleavage; RNA array
# setup conditions: with glucosamine-6-phosphate
Fewer inactive variants are shown than the library holds.
Numbers only here, please. The scale is s⁻¹.

- AUAAAAGCGCCAGUACUACAGAAAUGUAGUUGACGAGGAGGAGGUUUAUCGAAGUUUCGGCGGAUGCCUCCAAA [A14U U54G]: 0.00917
- AUAAAAGCGCCAGAACUACAGAAAUGUAGUUGACGAGGAGGAGGUUUAUCGAAUUCUCGGCGGAUGUCUCCAAA [U56C C67U]: 3.78e-05
- AUAAAAGCGCCAGAACUACAGAAAUGUAGUUGACGAGGAGGAGGUUUAUCGUAUUUUCGGCGGGUGCCUCCAAA [A52U A64G]: 0.000348
- AUAAAGGCGCCAGAACUACAGAAAUGUAGUUGACGAGGAGGAGGUUUAUCGAAUUUUCGGCGGAAGCCUCCAAA [A6G U65A]: 7.49e-05
- AUAAAAGCGCCAGUACUACAGAAAUGUAGUUGACGAGGAGGAGGUAUAUCGAAUUUUCGGCGGAUGCCUCCAAA [A14U U46A]: 0.000437
- AUAAAAGCGCCAGAGCUACAGAAAUGUAGUUGACGAGGACGAGGUUUAUCGAAUUUUCGGCGGAUGCCUCCAAA [A15G G40C]: 0.00522
- AUAAAAGCGACAGAACUACAGAAAUGUAGUUGACGAGGAGGAGGUUUAUCGAAUUUUGGGCGGAUGCCUCCAAA [C10A C58G]: 1.34e-05
- AUAAAAGCGCCAGAAUUACAGAAAUGUAGUUGACGAGGAGGAGGUUUAUCGAAUUUUCGGCGGAUGACUCCAAA [C16U C67A]: 0.00194

Would you kindly share the measured kcat for AUAAAAGCGCCAGAACUACAGAAAUGUAGUUGACGAGGAGGAGGUUUAUGGAACUUUCGGCGGAUGCCUCCAAA [C50G U54C] ?
5.48e-05

Follow-up item: AUAAAAGCGCCAGAGCUACAGAAAUGUAGUUGACGAGGAGCAGGUUUAUCGAAUUUUCGGCGGAUGCCUCCAAA [A15G G41C]
0.000647
